System: MG-63
Assay: cells
Assay type: cell-based
Settings: Homo sapiens, MG-63, 120 h, read-out: IC50 growth inhibition
measure: IC50 (µM)
# value in µM; strip the unit string

Query: Entry under review: `ClCCN(CCCl)c1ccc2ncnc(Nc3cccc(Br)c3)c2c1` . Reported IC50?
Reply: 12.5

Query: Entry under review: `CN(CCCl)c1ccc2ncnc(Nc3cccc(Br)c3)c2c1` . Reported IC50?
Reply: 5.04

Query: Entry under review: `ClCCNc1ccc2ncnc(Nc3cccc(Br)c3)c2c1` . Reported IC50?
Reply: 0.45

Then this compound:
Query: Entry under review: O=C(O)CCCc1ccc(N(CCCl)CCCl)cc1 [Chlorambucil, chlorambucil, reference compound] . Reported IC50?
Reply: 13.1
